Item-by-item account of Vz_pred
- assay_overview: Pharmacokinetic evaluation in rats
- Format: in vivo, Sprague-Dawley rats
- condition_set: rat, IV, 3 mg/kg single dose
- Description: 6 male Sprague-Dawley rats (7-8 weeks old, and weighing approximately 210 g) were divided into 2 groups with 3 rats in each group. […] Immediately after the collection of the blood sample, the test tube was gently inverted at least 5 times to ensure sufficient mixing and then placed on ice. […] The concentration of the compound of the present disclosure in plasma was determined by LC-MS/MS. […]
Report as a plain number; the unit L/kg is understood.

# example entries with known answers
compound=[2H]c1cccc(Oc2ccc3c(O)c(C(=O)NC([2H])([2H])C(=O)O)nc(C)c3c2)c1 unit=L/kg assay_value=0.25
compound=[2H]C([2H])(NC(=O)c1nc(C)c2cc(Oc3ccccc3)ccc2c1O)C(=O)O unit=L/kg assay_value=0.21
compound=[2H]c1c([2H])c([2H])c(Oc2ccc3c(O)c(C(=O)NCC(=O)O)nc(C)c3c2)c([2H])c1[2H] unit=L/kg assay_value=0.18

// next entry
Ask: State the recorded Vz_pred for this entry: Cc1nc(C(=O)NCC(=O)O)c(O)c2ccc(Oc3ccccc3)cc12 [FG-4592, reference compound]
Reply: 0.15

---

Item-by-item account of MRT inf
- assay_overview: Pharmacokinetic evaluation in rats
- Assay type: in vivo, Sprague-Dawley rats
- condition_set: male, Sprague-Dawley, plasma; rat, PO, 10 mg/kg single dose; read-out: MRTINF_pred
Report as a plain number; the unit h is understood.

# example entries with known answers
molecule="Cc1nc(C(=O)NCC(=O)O)c(O)c2ccc(Oc3ccccc3)cc12 [FG-4592, reference compound]" unit=h assay_value=5.03
molecule=[2H]c1cccc(Oc2ccc3c(O)c(C(=O)NC([2H])([2H])C(=O)O)nc(C)c3c2)c1 unit=h assay_value=5.83

Ask: State the recorded MRT inf for this entry: `[2H]c1c([2H])c([2H])c(Oc2ccc3c(O)c(C(=O)NCC(=O)O)nc(C)c3c2)c([2H])c1[2H]`
Reply: 5.33

Ask: State the recorded MRT inf for this entry: `[2H]C([2H])(NC(=O)c1nc(C)c2cc(Oc3ccccc3)ccc2c1O)C(=O)O`
Reply: 5.87

---

- assay_overview: Pharmacokinetic evaluation in rats
- Type: in vivo, Sprague-Dawley rats
- condition_set: male, Sprague-Dawley, plasma; rat, PO, 10 mg/kg single dose
Item-by-item account of AUC(0-t)
Report as a plain number; the unit µg·h/mL is understood.

# example entries with known answers
compound="[2H]c1c([2H])c([2H])c(Oc2ccc3c(O)c(C(=O)NCC(=O)O)nc(C)c3c2)c([2H])c1[2H] [Compound 32]" assay_value=185
compound="[2H]C([2H])(NC(=O)c1nc(C)c2cc(Oc3ccccc3)ccc2c1O)C(=O)O [Compound 11]" assay_value=260
compound="Cc1nc(C(=O)NCC(=O)O)c(O)c2ccc(Oc3ccccc3)cc12 [FG-4592, reference compound]" assay_value=196

Ask: State the recorded AUC(0-t) for this entry: [2H]c1cccc(Oc2ccc3c(O)c(C(=O)NC([2H])([2H])C(=O)O)nc(C)c3c2)c1 [Compound 49]
Reply: 218

---

- assay_overview: Metabolic stability in rat liver microsomes
- Format: in vitro ADME, SD rat
- condition_set: Sprague-Dawley, pH 7.4; rat liver microsomes 0.5 mg/mL, compound 1 μM, NADPH, 37° C.
Item-by-item account of microsomal CLint at 1 μM

substance_smiles=[2H]c1cc([2H])c(Oc2ccc3c(O)c(C(=O)NCC(=O)O)nc(C)c3c2)c([2H])c1 assay_value="< 8.6 µL/min/mg"
substance_smiles=[2H]c1cccc(Oc2ccc3c(O)c(C(=O)NC([2H])([2H])C(=O)O)nc(C)c3c2)c1 assay_value="< 8.6 µL/min/mg"

// next entry
Ask: State the recorded microsomal CLint at 1 μM for this entry: `[2H]Cc1nc(C(=O)NCC(=O)O)c(O)c2ccc(Oc3ccccc3)cc12`
Reply: < 8.6 µL/min/mg

---

- assay_overview: Pharmacokinetic evaluation in rats
- Assay type: in vivo, Sprague-Dawley rats
- condition_set: male, Sprague-Dawley, plasma; rat, IV, 3 mg/kg single dose; read-out: MRTINF_pred
Item-by-item account of MRT inf
Could you kindly put the unit after your number?

compound=[2H]c1c([2H])c([2H])c(Oc2ccc3c(O)c(C(=O)NCC(=O)O)nc(C)c3c2)c([2H])c1[2H] assay_value="3.14 h"
compound=[2H]C([2H])(NC(=O)c1nc(C)c2cc(Oc3ccccc3)ccc2c1O)C(=O)O assay_value="2.84 h"
compound=[2H]c1cccc(Oc2ccc3c(O)c(C(=O)NC([2H])([2H])C(=O)O)nc(C)c3c2)c1 assay_value="2.85 h"

Ask: State the recorded MRT inf for this entry: Cc1nc(C(=O)NCC(=O)O)c(O)c2ccc(Oc3ccccc3)cc12 [FG-4592, reference compound]
Reply: 2.82 h

---

- assay_overview: Pharmacokinetic evaluation in rats
- Type: in vivo, Sprague-Dawley rats
- condition_set: male, Sprague-Dawley; rat, IV, 3 mg/kg single dose, plasma
assay_endpoint: Cmax (ng/mL)
Report as a plain number; the unit ng/mL is understood.

# example entries with known answers
compound="Cc1nc(C(=O)NCC(=O)O)c(O)c2ccc(Oc3ccccc3)cc12 [FG-4592, reference compound]" assay_value=21100
compound="[2H]c1cccc(Oc2ccc3c(O)c(C(=O)NC([2H])([2H])C(=O)O)nc(C)c3c2)c1 [Compound 49]" assay_value=19500
compound="[2H]c1c([2H])c([2H])c(Oc2ccc3c(O)c(C(=O)NCC(=O)O)nc(C)c3c2)c([2H])c1[2H] [Compound 32]" assay_value=12200

// next entry
Ask: State the recorded Cmax for this entry: [2H]C([2H])(NC(=O)c1nc(C)c2cc(Oc3ccccc3)ccc2c1O)C(=O)O [Compound 11]
Reply: 19000

---

Item-by-item account of half-life
- assay_overview: Pharmacokinetic evaluation in rats
- Format: in vivo, Sprague-Dawley rats
- condition_set: male, Sprague-Dawley, rat, in vivo, po, 10 mg/kg
Report as a plain number; the unit h is understood.

# example entries with known answers
molecule="Cc1nc(C(=O)NCC(=O)O)c(O)c2ccc(Oc3ccccc3)cc12 [FG-4592, reference compound]" assay_value=2.78
molecule=[2H]c1cccc(Oc2ccc3c(O)c(C(=O)NC([2H])([2H])C(=O)O)nc(C)c3c2)c1 assay_value=3.33
molecule=[2H]c1c([2H])c([2H])c(Oc2ccc3c(O)c(C(=O)NCC(=O)O)nc(C)c3c2)c([2H])c1[2H] assay_value=2.43

Ask: State the recorded half-life for this entry: `[2H]C([2H])(NC(=O)c1nc(C)c2cc(Oc3ccccc3)ccc2c1O)C(=O)O`
Reply: 2.77

---

- assay_overview: Pharmacokinetic evaluation in rats
- Type: in vivo, Sprague-Dawley rats
- condition_set: male, Sprague-Dawley, plasma; rat, IV, 3 mg/kg single dose
Item-by-item account of Tmax
Report as a plain number; the unit min is understood.

compound="Cc1nc(C(=O)NCC(=O)O)c(O)c2ccc(Oc3ccccc3)cc12 [FG-4592, reference compound]" assay_endpoint=Tmax assay_value=4.8
compound=[2H]c1c([2H])c([2H])c(Oc2ccc3c(O)c(C(=O)NCC(=O)O)nc(C)c3c2)c([2H])c1[2H] assay_endpoint=Tmax assay_value=45
compound=[2H]c1cccc(Oc2ccc3c(O)c(C(=O)NC([2H])([2H])C(=O)O)nc(C)c3c2)c1 assay_endpoint=Tmax assay_value=4.8

Ask: State the recorded Tmax for this entry: `[2H]C([2H])(NC(=O)c1nc(C)c2cc(Oc3ccccc3)ccc2c1O)C(=O)O`
Reply: 4.8

---

Item-by-item account of Vz_pred
- assay_overview: Pharmacokinetic evaluation in rats
- Format: in vivo, Sprague-Dawley rats
- condition_set: rat, PO, 10 mg/kg single dose
Report as a plain number; the unit L/kg is understood.

# example entries with known answers
molecule="Cc1nc(C(=O)NCC(=O)O)c(O)c2ccc(Oc3ccccc3)cc12 [FG-4592, reference compound]" unit=L/kg assay_value=0.20
molecule=[2H]c1cccc(Oc2ccc3c(O)c(C(=O)NC([2H])([2H])C(=O)O)nc(C)c3c2)c1 unit=L/kg assay_value=0.24
molecule=[2H]c1c([2H])c([2H])c(Oc2ccc3c(O)c(C(=O)NCC(=O)O)nc(C)c3c2)c([2H])c1[2H] unit=L/kg assay_value=0.21

// next entry
Ask: State the recorded Vz_pred for this entry: `[2H]C([2H])(NC(=O)c1nc(C)c2cc(Oc3ccccc3)ccc2c1O)C(=O)O`
Reply: 0.16

---

Item-by-item account of F
- assay_overview: Pharmacokinetic evaluation in rats
- Type: in vivo, Sprague-Dawley rats
- condition_set: male, Sprague-Dawley, rat, in vivo
Report as a plain number; the unit % is understood.

# example entries with known answers
compound="[2H]C([2H])(NC(=O)c1nc(C)c2cc(Oc3ccccc3)ccc2c1O)C(=O)O [Compound 11]" unit=% assay_value=151.17
compound="[2H]c1cccc(Oc2ccc3c(O)c(C(=O)NC([2H])([2H])C(=O)O)nc(C)c3c2)c1 [Compound 49]" unit=% assay_value=132.44
compound="[2H]c1c([2H])c([2H])c(Oc2ccc3c(O)c(C(=O)NCC(=O)O)nc(C)c3c2)c([2H])c1[2H] [Compound 32]" unit=% assay_value=99.05

// next entry
Ask: State the recorded F for this entry: Cc1nc(C(=O)NCC(=O)O)c(O)c2ccc(Oc3ccccc3)cc12 [FG-4592, reference compound]
Reply: 92.21

From: patent US10851062B2
